Assay: logP by LC-MS on reversed-phase columns (C 18), method [c], neutral range pH 7.8
Type: physicochemical
Details: pH 7.8
Categories are defined by ranges of chromatographic logP, namely bin 1: < 3; bin 2: ≥ 3 and < 4; bin 3: ≥ 4

Worked examples follow.
COMPOUND: CCSC(C)c1cccc(Nc2ncc(Cl)c(NC(C)C)n2)c1 (stereo not shown) [Example 131]
ASSIGNED_CLASS: bin 3
//
COMPOUND: CCC[S+]([O-])c1cccc(Nc2ncc(C(F)(F)F)c(NC3CC3C)n2)c1 (stereo not shown) [Example 246]
ASSIGNED_CLASS: bin 2
//
COMPOUND: CCS(=O)(=O)c1cccc(Nc2ncc(C(F)(F)F)c(NC3CC3)n2)c1 [Example 116]
ASSIGNED_CLASS: bin 1
//
COMPOUND: CC[S+]([O-])c1cccc(Nc2ncc(C(F)(F)F)c(NC3CCC3C)n2)c1 (stereo not shown) [Example 244]
ASSIGNED_CLASS: bin 2
//
COMPOUND: CCCCS(=O)(=O)c1cccc(Nc2ncc(Cl)c(NC3CC3)n2)c1 [Example 123]
ASSIGNED_CLASS: bin 2
//
COMPOUND: CCS(=O)(=O)c1cccc(Nc2ncc(C(F)(F)F)c(NC3CCC3)n2)c1 [Example 118]
ASSIGNED_CLASS: bin 2

Band of COCCCOC(C)c1cccc(Nc2ncc(Cl)c(NC3CC3)n2)c1 (stereo not shown) [Example 256] ? bin 2

Moving on to the next compound: CCCCSc1cccc(Nc2ncc(Br)c(NC3CC3)n2)c1 [Example 105] bin 3

Moving on to the next compound: CC[S+]([O-])c1cccc(Nc2ncc(C(F)(F)F)c(NC3CC3)n2)c1 (stereo not shown) [Example 117] bin 1

----------
The reader will find reported IC50 values listed item by item below.
Test system: Fusarium proliferatum
Assay: Production of fumonisin FB1 by Fusarium proliferatum (microtitre plates; FB1 by HPLC-MS/MS, growth by OD620)
Assay type: cell-based
Details: Fusarium proliferatum, 144 h; growth, OD620 at the beginning and after 6 days; read-out: pI50 growth (converted)
Express it in µM; write the number only.

Examples with answers:
MOLECULE: COC(C)(C)Cc1cccc(Nc2ncc(Cl)c(NC3CC3)n2)c1
IC50 (µM): 5.01

MOLECULE: COCC(C)Oc1ccc(Nc2ncc(Br)c(NC3CC3)n2)cc1 (centres unmarked)
IC50 (µM): 6.31

MOLECULE: CC[S+]([O-])c1cccc(Nc2ncc(Cl)c(NC3CCC3)n2)c1 (centres unmarked)
IC50 (µM): 20

Shift focus to the following entry.
Reported IC50 for `COCc1cccc(Nc2ncc(C(F)(F)F)c(NC3CCC3)n2)c1` : what is it? 7.94

----------
The reader will find reported chromatographic logP values listed item by item below.
Test: logP by HPLC on reversed-phase columns (C 18), method [a], acidic range pH 2.3
Type: physicochemical
Details: pH 2.3, log p
Lab note: write the figure by itself, no unit.

Examples with answers:
MOLECULE: COCc1cccc(Nc2ncc(Cl)c(NCC#N)n2)c1
chromatographic logP: 1.68

MOLECULE: COCc1cccc(Nc2ncc(F)c(NC3CCC3)n2)c1
chromatographic logP: 1.5

MOLECULE: COCc1cccc(Nc2ncc(Cl)c(NC3CC(C)C3)n2)c1 (centres unmarked)
chromatographic logP: 4.04

MOLECULE: COCc1cccc(Nc2ncc(Cl)c(N(C)C(C)C)n2)c1
chromatographic logP: 2.56

Shift focus to the following entry.
Reported chromatographic logP for CC[S+]([O-])c1cccc(Nc2ncc(Cl)c(NC3CC3)n2)c1 (centres unmarked) : what is it? 1.49
